# EXPERIMENTAL_PROTOCOL: Solubility in pH 7.4 buffer after 18 hrs by UV spectroscopy based microSol assay
# Format: physicochemical
# EXPERIMENTAL_SETUP: buffer, pH 7.4, 18 h
RECORDED_ENDPOINT: solubility (µg/mL)

Would you please look over these solved cases?
CN(C1=NC(=O)/C(=C\c2ccc(N3CCOCC3)cc2)S1)c1ccccc1 ... 5.06
CCN(CC)c1ccc(/C=C2/SC(N(c3ccccc3)c3ccccc3)=NC2=O)cc1 ... 0.01
CN(C)c1ccc(/C=C2/SC(=Nc3ccccc3)NC2=O)cc1 ... 0.1
O=C1N=C(Nc2ccccc2)S/C1=C/c1ccc(N2CCNCC2)cc1 ... 1.68

A. CN1CCN(c2ccc(/C=C3/SC(N(C)c4ccccc4)=NC3=O)cc2)CC1
B. CN1CCN(c2ccc(/C=C3/SC(N(c4ccccc4)c4ccccc4)=NC3=O)cc2)CC1
**Q:** Which shows the larger solubility value: A or B ? Indicate your choice by writing its label.
**A:** A
(A: 18.91 µg/mL, B: 0.11 µg/mL)
